- measurement target: human GPR119 (Homo sapiens, UniProt Q8TDV5)
- experimental details: Cyclic AMP assay in stable cell line (Flp-In-CHO-hGPR119, HTRF)
- experimental conditions: Flp-In-CHO-hGPR119 cells, intracellular cAMP by HTRF, 1 mM IBMX, 37° C. for 30 minutes
pEC50: −log10 of the molar value.
measurement label: pEC50

P: CC1(OC(=O)N2CCC(COC3CN(c4ncc5c(n4)CCN(S(C)(=O)=O)C5)C3)CC2)CC1
Q: CCc1cnc(N2CCc3c(cccc3OC3CN(c4ncc5c(n4)CCN(S(C)(=O)=O)C5)C3)C2)nc1
Prompt line: Please choose the item with the lower pEC50 value from this pair: P and Q Identify your pick by its label.
Response line: Q

---

- measurement target: human GPR119 (Homo sapiens)
- Sequence (Q8TDV5 1-335): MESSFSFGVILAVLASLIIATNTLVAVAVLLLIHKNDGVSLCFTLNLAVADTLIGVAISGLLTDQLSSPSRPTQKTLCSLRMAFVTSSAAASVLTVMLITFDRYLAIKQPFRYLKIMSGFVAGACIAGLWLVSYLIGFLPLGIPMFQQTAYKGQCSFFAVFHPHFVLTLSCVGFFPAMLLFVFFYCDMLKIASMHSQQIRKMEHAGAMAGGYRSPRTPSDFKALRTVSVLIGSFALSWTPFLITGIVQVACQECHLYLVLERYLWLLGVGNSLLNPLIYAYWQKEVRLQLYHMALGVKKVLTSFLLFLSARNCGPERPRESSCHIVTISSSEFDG
- experimental details: Cyclic AMP assay in stable cell line (Flp-In-CHO-hGPR119, HTRF)
- experimental conditions: Flp-In-CHO-hGPR119 cells, intracellular cAMP by HTRF, 1 mM IBMX, 37° C. for 30 minutes
pEC50: −log10 of the molar value.
measurement label: pEC50

The cases that follow already have their pEC50 on record.
CC(C)OC(=O)N1CCC(CCCCOc2nccc3c2CCN(S(C)(=O)=O)C3)CC1 [Example A9] :: 6.72
CC1(OC(=O)N2CCC(CCCOc3ncc4c(n3)CCN(S(C)(=O)=O)C4)CC2)CC1 [Example D2] :: 8.70
CC(C)OC(=O)N1CCC(Oc2nccc3c2CCN(S(C)(=O)=O)C3)CC1 [Example A4] :: 5.43
CC(C)(C)OC(=O)N1CC(OCC2CCN(c3ncc4c(n3)CCN(S(C)(=O)=O)C4)CC2)C1 [Example G7] :: 7.66
CCc1cnc(N2CCC(OCCOc3ncc4c(n3)CCN(S(C)(=O)=O)C4)CC2)nc1 [Example E1] :: 6.67
CCc1cnc(N2CCC(CCCOc3ncc4c(n3)CCN(S(=O)(=O)CCCO)C4)CC2)nc1 [Example D9] :: 8.30
CCc1cnc(N2CCC(CCCOc3ncc4c(n3)CCN(S(C)(=O)=O)C4)CC2)nc1 [Example D3] :: 8.40
CC1(OC(=O)N2CCC(CCOCc3ncc4c(n3)CCN(S(C)(=O)=O)C4)CC2)CC1 [Example C1] :: 6.29

I: CC(C)c1noc(N2CCC(CCCNc3ncc4c(n3)CCN(S(C)(=O)=O)C4)CC2)n1 [Example D4]
II: CN(CCCC1CCN(C(=O)OC2(C)CC2)CC1)c1ncc2c(n1)CCN(S(C)(=O)=O)C2 [Example D8]
Prompt line: Hi! Which is lower in terms of pEC50, the first one I or the second one II ? Returns: label corresponding to the selected item.
Response line: II
(II: 8.00, I: 8.22)
